Assay details: inhibitors of insulin promoter-driven GFP, primary screen, imaging, TRM-6 cells, eGFP reporter, cell count (AID 1273)
Experimental context: at 2 µM, reporter expression induced with tamoxifen
Screen size: about 130,000 compounds; about 1,200 (0.92%) were called active.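 The calls were made as follows: active = inhibition above the mean plus 3 SD, with well images judged a real hit on visual review (cut at about 60% in these data, passing the limit was not always enough); inconclusive = inhibition over the cutoff but images rejected on review; inactive = inhibition not above the cutoff.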 The full list was thinned out, with actives kept by preference.
Outcome codes: active, inactive

Molecule	Class label
O=Cc1ccc(OCc2cn3ccccc3n2)cc1	inactive
COc1cccc(NC(=O)C2CCCN2C(=O)OCc2ccccc2)c1 (configuration not stated)	inactive
CC(=O)c1cccc(NC(=O)N2CCCC2C(=O)NCCc2ccccc2)c1 (configuration not stated)	active
CC(=O)c1ccc(NC(=O)C(C)NCc2ccc(Cl)cc2)cc1 (configuration not stated)	inactive
Cc1nnc(SCC(=O)N2CCN(c3ccccc3)CC2)n1-c1ccccc1	inactive
COc1ccc2oc(=O)c(C(=O)N3CCCC3)cc2c1	inactive
O=C(O)CSCC(=O)Nc1ccc(C(F)(F)F)cc1	inactive
CC(C)C(=O)NCc1cc(-c2ccc(Cl)cc2)no1	inactive
COc1cc(C(=O)NCc2ccc(-n3cccc3)cc2)cc(OC)c1OC	inactive
Cc1cc2nnc(SCC(=O)N3CCN(c4ccccc4)CC3)n2c(N)n1	active
CCN1CCN(c2ccc(NC(=O)c3cnccn3)cc2)CC1	inactive
O=c1c(Cl)c(NC2CC2)cnn1-c1ccccc1	inactive

----------
Attribute: inhibition
Assay details: inhibitors of insulin promoter-driven GFP, primary screen, imaging, TRM-6 cells, eGFP reporter, cell count (AID 1273)
Experimental context: at 2 µM, reporter expression induced with tamoxifen; stronger effect = higher value
Among all 130,000 compounds or so, about 1,200 (0.92%) were called active. Shown is part of a subset that was picked to be rich in actives.

Compound	Unit abbrev	inhibition
CCCNCc1cc(OCC)c(OCC(=O)Nc2ccccc2)cc1Br	%	0
CN(C)CCNC(CC(=O)Nc1ccc(Cl)c(Cl)c1)C(=O)O (stereo unspecified)	%	44.2
CC(=O)c1ccc(N2CCN(S(=O)(=O)c3c(C)[nH]c(=O)[nH]c3=O)CC2)cc1	%	-10
O=C(COC(=O)c1ccccn1)Nc1cccc2ccccc12	%	-83.3
COc1ccccc1NC(=O)CC(NCCN(C)C)C(=O)O (stereo unspecified)	%	72.4
CCN(CC)CCn1c2ccc(Cl)cc2c2nc(C)sc21	%	46.1
O=C(CSc1ccsc1[N+](=O)[O-])N1CCCCC1	%	-33.3
CCCCn1c(CN2CCN(CCO)CC2)nc2ccccc21	%	-68.6
COC(=O)C(CC(=O)Nc1cc(C)ccc1C)Nc1ccccc1OC (stereo unspecified)	%	7.14
Cc1ccccc1NC(=O)Cn1c(=O)n(CC2CCCO2)c(=O)c2ccccc21 (stereo unspecified)	%	13.3
Cc1ccc(N(C(=O)Cc2cccs2)C2C=CS(=O)(=O)C2)cc1Cl (stereo unspecified)	%	15

----------
Assay details: inhibitors of insulin promoter-driven GFP, primary screen, imaging, TRM-6 cells (human fetal islet line), eGFP reporter, cell count (AID 1273)
Experimental context: at 2 µM, reporter expression induced with tamoxifen; stronger effect = higher value
Screen size: about 130,000 compounds; about 1,200 (0.92%) were called active. For the sample, actives were picked, then their nearest neighbours and some compounds at random.
Experimental readout: inhibition (%)

Compound	Quantitative result
O=C(c1snnc1-c1ccccc1)N1CCOCC1	-30.2
COC(=O)NNC1=CC(=O)CC(C)(C)C1	-26.7
C=CCC1(CC=C)CCCN1C(=O)CC1C(=O)NCCN1Cc1ccccc1OC (configuration not stated)	20
COc1ccc(NC(=O)CSc2nnc(-c3cccs3)n2Cc2ccco2)cc1OC	72.7
Cn1nnnc1SCC(=O)N1CCN(C(c2ccccc2)c2ccccc2)CC1	-18.9
CCc1ccc(/C=C2\SC(N3CCOCC3)=NC2=O)cc1	16.7
Cc1ccc(NC(=O)CSc2nnc(-c3cnccn3)n2Cc2ccco2)cc1C	-21.6
